Record form. Attribute: Activity. Fill in for each entry.
test system: Rattus norvegicus; experiment: Hypoglycemic activity in Sprague-Dawley rat assessed as reduction of blood glucose level at 100 mg/kg, po by glucagon-impaired glucose disposal test relative to control; assay type: functional; design: scale not given: the % may be the effect or the level left
Hi! Could you send only the number? It should be in %, unit omitted.

In plain terms, CCCCCN1[C@@H]2CC[C@@H]1[C@@H](c1cccs1)[C@@H](C(=O)OC)C2.CS(=O)(=O)O has a documented Activity of 60

In plain terms, COC(=O)[C@H]1C[C@H]2CC[C@H]([C@H]1c1ccccc1)N2Cc1ccccc1 has a documented Activity of 42

In plain terms, CCCCCCCN1[C@@H]2CC[C@@H]1[C@@H](c1cccs1)[C@@H](C(=O)OC)C2 has a documented Activity of 40

In plain terms, COC(=O)[C@H]1C[C@H]2CC[C@H]([C@H]1c1ccc[nH]1)N2C has a documented Activity of 30

----------
Record form. Attribute: Activity. Fill in for each entry.
test system: Rattus norvegicus; test: Hypoglycemic activity in Sprague-Dawley rat assessed as reduction of blood glucose level at 88 mg/kg, po by glucagon-impaired glucose disposal test relative to control; assay type: functional; parameters: scale not given: the % may be the effect or the level left

Per the reported Rattus norvegicus data, COC(=O)[C@H]1C[C@H]2CC[C@@H](N2)[C@H]1c1cccc(O)c1.Cl has Activity of <20%

Per the reported Rattus norvegicus data, COC(=O)[C@H]1C[C@H]2CC[C@H]([C@H]1c1cccc(O)c1)N2C.Cl has Activity of <20%

Per the reported Rattus norvegicus data, COC(=O)[C@H]1C[C@H]2CC[C@H]([C@H]1Cc1ccccc1)N2C.Cl has Activity of 21%

Per the reported Rattus norvegicus data, COC(=O)[C@H]1C[C@H]2CC[C@H]([C@H]1c1ccccc1)N2C.Cl (racemic) has Activity of 24%

Per the reported Rattus norvegicus data, COC(=O)[C@@H]1C[C@@H]2CC[C@@H]([C@@H]1c1cccs1)N2C.Cl has Activity of <20%

----------
tested on: Mus musculus; assay: Analgesic activity in Swiss-Webster mouse assessed as reduction of acetylcholine-induced writhing at 25 mg/kg, sc relative to control; assay type: functional; design: scale not given: the % may be the effect or the level left; settings: route subcutaneous
Property: Activity (%)
Hi! Could you send only the number? It should be in %, unit omitted.

In plain terms, CCCCCOC(=O)[C@H]1C[C@H]2CC[C@H]([C@H]1c1cccs1)N2C has a documented Activity of 27

In plain terms, CCCOC(=O)[C@H]1C[C@H]2CC[C@H]([C@H]1c1cccs1)N2C has a documented Activity of 27

In plain terms, COC(=O)[C@H]1C[C@H]2CC[C@H]([C@H]1c1cccs1)N2C(C)C.Cl has a documented Activity of 13

In plain terms, CCCCN1[C@@H]2CC[C@@H]1[C@@H](c1cccs1)[C@@H](C(=O)OC)C2 has a documented Activity of 20

In plain terms, COC(=O)[C@H]1C[C@H]2CC[C@H]([C@H]1c1cccs1)N2CC(N)=O.Cl has a documented Activity of 13

----------
test system: Mus musculus; assay: Analgesic activity in po dosed Swiss-Webster mouse assessed as reduction of acetylcholine-induced writhing; type: functional
Cut-off 40 mg/kg on ED50: below means true (1), at or above means false (0).

**Query** Please check: ED50 for COC(=O)[C@H]1C[C@H]2CC[C@H]([C@H]1c1cccs1)N2CCC#N.Cc1ccc(S(=O)(=O)O)cc1 , strictly under 40 mg/kg or not?
**Result** false (0)

**Query** Please check: ED50 for COC(=O)[C@H]1C[C@H]2CC[C@H]([C@H]1c1ccccc1)N2Cc1ccccc1 , strictly under 40 mg/kg or not?
**Result** true (1)

**Query** Please check: ED50 for CCCCCN1[C@@H]2CC[C@@H]1[C@@H](c1cccs1)[C@@H](C(=O)OC)C2.CS(=O)(=O)O , strictly under 40 mg/kg or not?
**Result** false (0)

**Query** Please check: ED50 for COC(=O)[C@H]1C[C@H]2CC[C@H]([C@H]1c1cccs1)N2C.Cl (racemic) , strictly under 40 mg/kg or not?
**Result** true (1)

**Query** Please check: ED50 for CCOC(=O)[C@H]1C[C@H]2CC[C@H]([C@H]1c1cccs1)N2C , strictly under 40 mg/kg or not?
**Result** true (1)

**Query** Please check: ED50 for COC(=O)[C@H]1CCCN(C)[C@H]1c1cccs1 (relative stereo) , strictly under 40 mg/kg or not?
**Result** true (1)
